# Measurement notes: chemical genetic growth profiling, strain panel (AID 1159580);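 also: tested at 20 µM; growth read once vehicle control cultures reached saturation at 30 °C; 1 = growth at the plate median or of vehicle wells; lower values mean less growth of the strain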
# Conditions used: S. cerevisiae deletion strains, growth OD, locus YJL095W, strain BCK1 (second series), stronger effect = lower value
Among all 5,500 compounds or so, about 2,000 (36%) were called active. Inconclusive results (about 18%) are left out. Some of the results follow.
Result type: normalized growth

INSERT INTO results (molecule, result_type, quantitative_readout) VALUES
  ('CCN(CC)CCNC(=O)c1cc(Br)c(N)cc1OC', 'normalized growth', 0.99),
  ('CN(C)c1ccc(C(=C2C=CC(=[N+](C)C)C=C2)c2ccc(N(C)C)cc2)cc1', 'normalized growth', 0.525),
  ('CCC(=O)O[C@H]1[C@H](O[C@@H]2[C@@H](C)[C@H](O[C@H]3C[C@@](C)(OC)[C@@H](O)[C@H](C)O3)[C@@H](C)C(=O)O[C@H](CC)[C@@](C)(O)[C@H](O)[C@@H](C)C(=O)[C@H](C)C[C@@]2(C)O)O[C@H](C)C[C@@H]1N(C)C', 'normalized growth', 0.993),
  ('COCCc1ccc(OCC(O)CNC(C)C)cc1 (centres undefined)', 'normalized growth', 0.994),
  ('COc1cc(O)c(C(=O)/C=C/c2ccc(O)c(OC)c2)c(OC)c1', 'normalized growth', 0.979),
  ('COc1cc(O)c(C(=O)/C=C/c2ccc(OC)c(O)c2)c(OC)c1', 'normalized growth', 0.86),
  ('COc1cc(NC(C)CCCN)c2ncccc2c1 (centres undefined)', 'normalized growth', 1.02),
  ('CC(=O)OCC[N+](C)(C)C', 'normalized growth', 1.02),
  ('NC(=O)C(c1ccccc1)(c1ccccc1)C1CCN(CCc2ccc3c(c2)CCO3)C1 (centres undefined)', 'normalized growth', 1.03);

Measured values drawn from PubChem BioAssay AID1159580 for this set.
